Exercise: for every item that follows, state its recorded hepatic extraction ratio.
# PROTOCOL_SUMMARY: Hepatic extraction ratio in human liver microsomes
# Format: ADME, Microsome
# PROTOCOL_CONDITIONS: read-out: ERH

C=CC(=O)N1CCN(c2nc(OC[C@@H]3CCCN3C)nc3c2CCN(c2cccc4ccccc24)C3)C[C@@H]1CC#N yielded hepatic extraction ratio of 0.45

C=CC(=O)N1CCN(c2nc(OC[C@@H]3CCCN3C)nc3c2CCN(c2c(C(F)(F)F)ccc4[nH]ncc24)C3)CC1 yielded hepatic extraction ratio of < 0.55

C=CC(=O)N1CCN(c2nc(OC[C@@H]3CCCN3C)nc3c2CCN(c2c(C)c(C)cc4[nH]ncc24)C3)CC1 yielded hepatic extraction ratio of < 0.55

====

# PROTOCOL_SUMMARY: Cmax in rat at 30 mg/kg, po
# Format: ADME, organism-based
# Design: dose 30 mg/kg, route oral
# PROTOCOL_CONDITIONS: in vivo
OBSERVED_PROPERTY: Cmax (ng/mL)
Field format: number, assumed ng/mL, no unit text.

C=C(F)C(=O)N1CCN(c2nc(OC[C@@H]3CCCN3C)nc3c2CCN(c2cccc4cccc(Cl)c24)C3)C[C@@H]1CC#N [ADAGRASIB] yielded Cmax of 209

====

# PROTOCOL_SUMMARY: Volume of distribution at steady state in beagle dog at 3 mg/kg, iv
# Format: ADME, organism-based, Canis lupus familiaris
# PROTOCOL_CONDITIONS: in vivo, read-out: Vdss
OBSERVED_PROPERTY: Vd (L/kg)
Field format: number, assumed L/kg, no unit text.

C=CC(=O)N1CCN(c2nc(OC[C@@H]3CCCN3C)nc3c2CCN(c2cccc4cccc(Cl)c24)C3)C[C@@H]1CC#N yielded Vd of 7.91

C=CC(=O)N1CCN(c2nc(OC[C@@H]3CCCN3C)nc3c2CCN(c2cccc4cccc(C)c24)C3)C[C@@H]1CC#N yielded Vd of 6.16

C=C(F)C(=O)N1CCN(c2nc(OC[C@@H]3CCCN3C)nc3c2CCN(c2cccc4cccc(Cl)c24)C3)C[C@@H]1CC#N yielded Vd of 17.4

====

# PROTOCOL_SUMMARY: Tmax in beagle dog at 10 mg/kg, po
# Assay type: ADME, organism-based, Canis lupus familiaris
# PROTOCOL_CONDITIONS: in vivo
OBSERVED_PROPERTY: Tmax (h)
Field format: number, assumed h, no unit text.

C=CC(=O)N1CCN(c2nc(OC[C@@H]3CCCN3C)nc3c2CCN(c2cccc4cccc(C)c24)C3)C[C@@H]1CC#N yielded Tmax of 1.17

C=CC(=O)N1CCN(c2nc(OC[C@@H]3CCCN3C)nc3c2CCN(c2cccc4cccc(Cl)c24)C3)C[C@@H]1CC#N yielded Tmax of 0.833

====

# PROTOCOL_SUMMARY: Tmax in CD1 mouse at 10 mg/kg, po
# Type: ADME, organism-based
# PROTOCOL_CONDITIONS: in vivo
OBSERVED_PROPERTY: Tmax (min)
Field format: number, assumed min, no unit text.

C=CC(=O)N1CCN(c2nc(OC[C@@H]3CCCN3C)nc3c2CCN(c2cccc4ccccc24)C3)CC1 yielded Tmax of 30

====

Exercise: for every item that follows, state its recorded half-life at 5 µM.
# PROTOCOL_SUMMARY: Half life in mouse whole blood at 5 uM by LC-MS/MS analysis
# Type: ADME, tissue-based

C=C(F)C(=O)N1CCN(c2nc(OC[C@@H]3CCCN3C)nc3c2CCN(c2cccc4cccc(Cl)c24)C3)C[C@@H]1CC#N yielded half-life at 5 µM of > 50 h

CN1CCC[C@H]1COc1nc2c(c(N3CCN(C(=O)/C=C/CF)[C@@H](CC#N)C3)n1)CCN(c1cccc3cccc(Cl)c13)C2 yielded half-life at 5 µM of 11 h

COC/C=C/C(=O)N1CCN(c2nc(OC[C@@H]3CCCN3C)nc3c2CCN(c2cccc4cccc(Cl)c24)C3)C[C@@H]1CC#N yielded half-life at 5 µM of 11 h

C=CC(=O)N1CCN(c2nc(OC[C@@H]3CCCN3C)nc3c2CCN(c2cccc4cccc(Cl)c24)C3)C[C@@H]1CC#N yielded half-life at 5 µM of 5 h

C=C(OC)C(=O)N1CCN(c2nc(OC[C@@H]3CCCN3C)nc3c2CCN(c2cccc4cccc(Cl)c24)C3)C[C@@H]1CC#N yielded half-life at 5 µM of > 50 h

Taken from ChEMBL document CHEMBL4610106.
